Quick reference: Residual activity of the listed items.
Test system: HPPD polypeptides (wild-type SEQ ID NO:1 and mutants)
particulars: kapp in presence of 50 μM Cmpd. 1, normalised to kapp without inhibitor; low substrate concentration
Procedure: For the generation of crude HPPD polypeptide extract in micro titer plates (MTP) for the determination of residual activity in inhibition assays, cells were grown in 40 or 150 μl LB medium containing 1% Glucose (Merck, Darmstadt, Germany) and 100 μg/ml ampicillin in a standard 96 well plate (Thermo Fisher Scientific, Waltham, USA) incubated for about 18 h in a humidity incubator at 37° C. […]
reported-metric: Residual activity

molecule	reported-metric	endpoint-result
83 (protein, mutant HPPD polypeptide) MADLYENPMGLMGFEFIEFASPTPGTLEPIFEIMGFTKVATHRSKNVHLYRQGEINLILNNEPNSIASYFAAEHGPSVCGMAFRVKDSQKAYNRALELGAQPIHIDTGPMELNLPAIKGIGGAPLYLIDRFGEGSSIYDIDFVYLEGVERNPVGAGLKVIDHLTHNVYRGRMVYWANFYEKLFNFREARYFDIKGEYTGLTSKAMSAPDGMIRIPLNEESSKGAGQIEEFLMQFNGEGIQHVAFLTDDLVKTWDALKKIGMRFMTAPGDEYYEMLEGRLPDHGEPVDQLQARGILLDGSSVEGDKRLLLQIFSETLMGPVFFEFIQRKGDDGFGPDSFKGLFESVERDQVRRGVLTAD	Residual activity	53%
39 (protein, mutant HPPD polypeptide) MADLYENPMGLMGFEFIEFASPTPGTLEPIFEIMGFTKVATHRSKNVHLYRQGEINLILNNEPNSIASYFAAEHGPSVCGMAFRVKDSQKAYNRALELGAQPIHIDTGPMELNLPAIKGIGGAPLYLIDRFGEGSSIYDIDFVYLEGVERNPVGAGLKVIDHLTHNVYRGRMVYWANFYEKLFNFREARYFDIKGEYTGLTSKLMSAPDGMIRIPLNEESSKGAGQIEEFLMQFNGEGIQHVAFLTDDLVKTWDALKKIGMRFMTAPGDEYYEMLEGRLPDHGEPVDQLQARGILLDGSSVEGDKRLLLQIFSETLMGPVFFEFIQRKGDDGFGPDSFKVLFESVERDQVRRGVLTAD	Residual activity	34%
48 (protein, mutant HPPD polypeptide) MADLYENPMGLMGFEFIEFASPTPGTLEPIFEIMGFTKVATHRSKNVHLYRQGEINLILNNEPNSIASYFAAEHGPSVCGMAFRVKDSQKAYNRALELGAQPIHIDTGPMELNLPAIKGIGGAPLYLIDRFGEGSSIYDIDFVYLEGVERNPVGAGLKVIDHLTHNVYRGRMVYWANFYEKLFNFREARYFDIKGEYTGLTSKAMSAPDGMIRIPLNEESSKGAGQIEEFLMQFNGEGIQHVAFLTDDLVKTWDALKKIGMRFMTAPGDEYYEMLEGRLPDHGEPVDQLQARGILLDGSSVEGDKRLLLQIFSETLMGPVFFEFIQRKGDHGFGPDSFKVLFESVERDQVRRGVLTAD	Residual activity	47%
40 (protein, mutant HPPD polypeptide) MADLYENPMGLMGFEFIEFASPTPGTLEPIFEIMGFTKVATHRSKNVHLYRQGEINLILNNEPNSIASYFAAEHGPSVCGMAFRVKDSQKAYNRALELGAQPIHIDTGPMELNLPAIKGIGGAPLYLIDRFGEGSSIYDIDFVYLEGVERNPVGAGLKVIDHLTHNVYRGRMVYWANFYEKLFNFREARYFDIKGEYTGLTSKMMSAPDGMIRIPLNEESSKGAGQIEEFLMQFNGEGIQHVAFLTDDLVKTWDALKKIGMRFMTAPGDEYYEMLEGRLPDHGEPVDQLQARGILLDGSSVEGDKRLLLQIFSETLMGPVFFEFIQRKGDDGFGPDSFKVLFESVERDQVRRGVLTAD	Residual activity	65%
